# targetDesc: PDE4B (Homo sapiens, UniProt Q07343)
# Construct: hexa-histidine (His6) (N); made in house
# Sequence (Q07343 330-659 limits assumed, species assumed): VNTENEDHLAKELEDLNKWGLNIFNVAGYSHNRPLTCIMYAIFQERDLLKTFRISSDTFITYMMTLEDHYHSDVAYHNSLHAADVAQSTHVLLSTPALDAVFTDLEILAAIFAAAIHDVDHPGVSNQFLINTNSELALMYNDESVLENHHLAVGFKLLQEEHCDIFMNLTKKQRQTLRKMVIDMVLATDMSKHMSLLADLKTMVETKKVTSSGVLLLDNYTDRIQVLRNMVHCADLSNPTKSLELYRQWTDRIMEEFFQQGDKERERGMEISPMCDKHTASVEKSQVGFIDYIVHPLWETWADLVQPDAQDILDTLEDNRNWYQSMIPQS
# testDescription: PDE4 IMAP Assay
# Type: biochemical
# conditionSet: catalytic domain of PDE4B, fluorescence polarization
recordedMetric: inhibition at 10 µM

Examples with their reported inhibition at 10 µM follow.
• COc1ccc(C2=NN(S(=O)(=O)c3ccc(C)cc3)C(c3cn(-c4ccccc4)nc3-c3ccccc3)C2)cc1OC (centres unmarked) [Example 24] = < 50%
• COc1ccc(C2=NN(C(=O)c3ccccc3Cl)C(c3ccccc3F)C2)cc1OC (centres unmarked) [Example 34] = ≥ 50%
• COc1ccc(C2=NN(S(=O)(=O)c3ccccc3)C(c3ccc(C)cc3)C2)cc1OC (centres unmarked) [Example 56] = < 50%
• COc1ccc(C2=NN(S(C)(=O)=O)C(c3ccc(C)cc3)C2)cc1OC (centres unmarked) [Example 13] = < 50%
• COc1ccc(C2=NN(C(C)=O)C(c3cccc(OC)c3OC)C2)cc1OC (centres unmarked) [Example 101] = < 50%
• COc1ccc(C2=NN(C(=O)c3cc(OC)c(OC)c(OC)c3)C(c3ccc(C)cc3)C2)cc1OC (centres unmarked) [Example 45] = ≥ 50%
• COc1ccc(C2=NN(C(C)=O)C(c3ccccc3OC)C2)cc1OC (centres unmarked) [Example 105] = < 50%

Here is another compound to look at.
# input May I ask what inhibition at 10 µM has been recorded for COc1ccc(C2=NN(C(=O)CCC(=O)O)C(c3cccc(OC)c3OC)C2)cc1OC (centres unmarked) [Example 69] ?
# output < 50%

----------
# targetDesc: PDE4B (Homo sapiens, UniProt Q07343)
# Construct: hexa-histidine (His6) (N); made in house
# testDescription: PDE4 IMAP Assay
# Type: biochemical
# conditionSet: catalytic domain of PDE4B, fluorescence polarization
# Text: Compounds may be screened for functional potency in in vitro biochemical assays for their ability to inhibit the activity of phosphodiesterase (PDE) enzymes. […] Such binding causes a change in the rate of the molecular motion of the nucleotide, and results in an increase in the fluorescence polarization value observed for the fluorescent label attached to the substrate. […]
This section presents molecules with their documented inhibition at 10 µM values.

# input May I ask what inhibition at 10 µM has been recorded for COc1ccc(C2=NN(S(=O)(=O)c3ccc(C)cc3)C(c3cccc([N+](=O)[O-])c3)C2)cc1OC (centres unmarked) [Example 52] ?
# output < 50%

# input May I ask what inhibition at 10 µM has been recorded for COc1ccc(C2=NN(C(=O)c3ccc(Br)o3)C(c3ccccc3F)C2)cc1OC (centres unmarked) [Example 49] ?
# output ≥ 50%

# input May I ask what inhibition at 10 µM has been recorded for COc1ccc(C2=NN(C(=O)c3cc(OC)c(OC)c(OC)c3)C(c3ccc(Cl)cc3)C2)cc1OC (centres unmarked) [Example 43] ?
# output ≥ 50%

# input May I ask what inhibition at 10 µM has been recorded for COc1ccc(C2=NN(C(=O)c3ccccc3Cl)C(c3cccc(OC)c3OC)C2)cc1OC (centres unmarked) [Example 30] ?
# output < 50%

# input May I ask what inhibition at 10 µM has been recorded for COc1ccc(C2=NN(S(=O)(=O)c3ccc(C)cc3)C(c3ccccc3Cl)C2)cc1OC (centres unmarked) [Example 60] ?
# output < 50%

# input May I ask what inhibition at 10 µM has been recorded for COc1ccc(C2=NN(S(=O)(=O)c3ccccc3)C(c3ccccc3Cl)C2)cc1OC (centres unmarked) [Example 59] ?
# output < 50%

# input May I ask what inhibition at 10 µM has been recorded for COc1ccc(C2=NN(S(=O)(=O)c3ccccc3)C(c3ccc(OC)c(OC)c3)C2)cc1OC (centres unmarked) [Example 86] ?
# output ≥ 50%

----------
This section presents compounds with their documented inhibition at 10 µM values.
# targetDesc: PDE4B (Homo sapiens)
# Construct: hexa-histidine (His6) (N); made in house
# testDescription: PDE4 IMAP Assay
# Format: biochemical
# conditionSet: catalytic domain of PDE4B, fluorescence polarization

Examples with their reported inhibition at 10 µM follow.
* COc1ccc(C2CC(c3ccc(OC)c(OC)c3)=NN2C(=O)CCCC(=O)O)cc1 (stereo not shown) | < 50%
* COc1ccc(C2=NN(C(C)=O)C(c3cc4ccc(C)cc4nc3Cl)C2)cc1OC (stereo not shown) | < 50%
* COc1ccc2cc(C3CC(c4ccc(OC)c(OC)c4)=NN3C(=O)c3ccccc3Cl)c(Cl)nc2c1 (stereo not shown) | < 50%

Here is another compound to look at.
# input May I ask what inhibition at 10 µM has been recorded for CCc1ccc(C2CC(c3ccc(OC)c(OC)c3)=NN2S(C)(=O)=O)cc1 (stereo not shown) ?
# output < 50%

----------
# targetDesc: PDE4B (Homo sapiens, UniProt Q07343)
# Construct: hexa-histidine (His6) (N); made in house
# testDescription: PDE4 IMAP Assay
# Assay type: biochemical
# conditionSet: catalytic domain of PDE4B, fluorescence polarization
recordedMetric: inhibition at 10 µM

Examples with their reported inhibition at 10 µM follow.
* COc1ccc(C2=NN(C(=O)c3cccs3)C(c3cccc(OC)c3OC)C2)cc1OC (centres unmarked) | ≥ 50%
* COc1ccc(C2CC(c3ccc(OC)c(OC)c3)=NN2S(C)(=O)=O)cc1 (centres unmarked) | < 50%
* COc1ccc(C2=NN(S(=O)(=O)c3ccc(C)cc3)C(c3ccccc3OC)C2)cc1OC (centres unmarked) | < 50%
* COc1ccc(C2=NN(C(=O)CCC(=O)O)C(c3ccccc3OC)C2)cc1OC (centres unmarked) | < 50%

Here is another molecule to look at.
# input May I ask what inhibition at 10 µM has been recorded for COc1ccc(C2=NN(C(=O)c3ccc(Br)o3)C(c3ccc(C)cc3)C2)cc1OC (centres unmarked) ?
# output ≥ 50%

----------
This section presents molecules with their documented inhibition at 10 µM values.
# targetDesc: PDE4B (Homo sapiens)
# Construct: hexa-histidine (His6) (N); made in house
# testDescription: PDE4 IMAP Assay
# Format: biochemical
# conditionSet: catalytic domain of PDE4B, fluorescence polarization

Examples with their reported inhibition at 10 µM follow.
• COc1ccc2cc(C3CC(c4ccc(OC)c(OC)c4)=NN3C(=O)c3ccco3)c(Cl)nc2c1 (stereo not shown) [Example 10] = < 50%
• COc1ccc2nc(Cl)c(C3CC(c4ccc(OC)c(OC)c4)=NN3C(=O)c3ccccc3)cc2c1 (stereo not shown) [Example 7] = < 50%
• COc1ccc(OC)c(C2CC(c3ccc(OC)c(OC)c3)=NN2S(=O)(=O)c2ccccc2)c1 (stereo not shown) [Example 88] = < 50%
• COc1ccc(C2=NN(S(=O)(=O)c3ccccc3)C(c3ccccc3)C2)cc1OC (stereo not shown) [Example 63] = < 50%
• COc1ccc(C2=NN(C(C)=O)C(c3ccc(OC)c(OC)c3)C2)cc1OC (stereo not shown) [Example 100] = < 50%
• COc1ccc(C2=NN(C(=O)c3ccc(Br)o3)C(c3ccc(N(C)C)cc3)C2)cc1OC (stereo not shown) [Example 81] = < 50%
• COc1ccc(C2=NN(C(=O)c3cc(OC)c(OC)c(OC)c3)C(c3ccc(F)cc3)C2)cc1OC (stereo not shown) [Example 42] = ≥ 50%
• COc1ccc(OC)c(C2CC(c3ccc(OC)c(OC)c3)=NN2S(=O)(=O)c2ccc(C)cc2)c1 (stereo not shown) [Example 89] = < 50%

# input May I ask what inhibition at 10 µM has been recorded for COc1ccc(C2=NN(S(C)(=O)=O)C(c3cccc(OC)c3OC)C2)cc1OC (stereo not shown) [Example 11] ?
# output < 50%

# input May I ask what inhibition at 10 µM has been recorded for COc1ccc(C2=NN(C(=O)CCC(=O)O)C(c3ccc(Cl)cc3)C2)cc1OC (stereo not shown) [Example 70] ?
# output < 50%

# input May I ask what inhibition at 10 µM has been recorded for COc1ccc(C2=NN(C(=O)c3cc(OC)c(OC)c(OC)c3)C(c3ccc(Br)cc3)C2)cc1OC (stereo not shown) [Example 44] ?
# output ≥ 50%

----------
This section presents molecules with their documented inhibition at 10 µM values.
# targetDesc: PDE4B (Homo sapiens, UniProt Q07343)
# Construct: hexa-histidine (His6) (N); made in house
# testDescription: PDE4 IMAP Assay
# Type: biochemical
# conditionSet: catalytic domain of PDE4B, fluorescence polarization
# Text: Compounds may be screened for functional potency in in vitro biochemical assays for their ability to inhibit the activity of phosphodiesterase (PDE) enzymes. […] Such binding causes a change in the rate of the molecular motion of the nucleotide, and results in an increase in the fluorescence polarization value observed for the fluorescent label attached to the substrate. […]

Examples with their reported inhibition at 10 µM follow.
• COc1ccc(C2=NN(C(=O)c3ccccc3Cl)C(c3cn(-c4ccccc4)nc3-c3ccccc3)C2)cc1OC (stereo not drawn) = < 50%
• COc1ccc(C2CC(c3ccc(OC)c(OC)c3)=NN2C(C)=O)cc1 (stereo not drawn) = < 50%
• COc1cccc(C2CC(c3ccc(OC)c(OC)c3)=NN2S(C)(=O)=O)c1 (stereo not drawn) = < 50%
• COc1ccc(C2=NN(C(=O)CCC(=O)O)C(c3cc4ccccc4nc3Cl)C2)cc1OC (stereo not drawn) = < 50%
• COc1ccc(C2=NN(C(=O)c3ccc(Br)o3)C(c3ccccc3)C2)cc1OC (stereo not drawn) = ≥ 50%
• COc1ccc(C2=NN(C(=O)CCC(=O)O)C(c3cc4cccc(C)c4nc3Cl)C2)cc1OC (stereo not drawn) = < 50%

# input May I ask what inhibition at 10 µM has been recorded for COc1ccc(C2=NN(C(=O)CCCC(=O)O)C(c3ccc(Cl)cc3)C2)cc1OC (stereo not drawn) ?
# output < 50%

# input May I ask what inhibition at 10 µM has been recorded for CCC(=O)N1N=C(c2ccc(OC)c(OC)c2)CC1c1ccc(CC)cc1 (stereo not drawn) ?
# output < 50%

# input May I ask what inhibition at 10 µM has been recorded for COc1ccc(C2=NN(C(C)=O)C(c3ccccc3)C2)cc1OC (stereo not drawn) ?
# output < 50%

# input May I ask what inhibition at 10 µM has been recorded for CCc1ccc(C2CC(c3ccc(OC)c(OC)c3)=NN2C(=O)CCCC(=O)O)cc1 (stereo not drawn) ?
# output < 50%

# input May I ask what inhibition at 10 µM has been recorded for COc1ccc(C2=NN(C(=O)CCCC(=O)O)C(c3cccs3)C2)cc1OC (stereo not drawn) ?
# output < 50%

# input May I ask what inhibition at 10 µM has been recorded for COc1ccc(C2=NN(C(=O)c3ccccc3Cl)C(c3ccc(C)cc3)C2)cc1OC (stereo not drawn) ?
# output < 50%

# input May I ask what inhibition at 10 µM has been recorded for COc1ccc2cc(C3CC(c4ccc(OC)c(OC)c4)=NN3C(=O)CCC(=O)O)c(Cl)nc2c1 (stereo not drawn) ?
# output < 50%

# input May I ask what inhibition at 10 µM has been recorded for COc1ccc(C2=NN(S(=O)(=O)c3ccc(C)cc3)C(c3ccc(C)cc3)C2)cc1OC (stereo not drawn) ?
# output < 50%

# input May I ask what inhibition at 10 µM has been recorded for COc1ccc2cc(C3CC(c4ccc(OC)c(OC)c4)=NN3C(C)=O)c(Cl)nc2c1 (stereo not drawn) ?
# output < 50%

# input May I ask what inhibition at 10 µM has been recorded for COc1ccc(C2=NN(S(=O)(=O)c3ccc(C)cc3)C(c3ccc(OC)c(OC)c3)C2)cc1OC (stereo not drawn) ?
# output < 50%

# input May I ask what inhibition at 10 µM has been recorded for COc1ccc(C2=NN(S(C)(=O)=O)C(c3c(F)cccc3Cl)C2)cc1OC (stereo not drawn) ?
# output < 50%

# input May I ask what inhibition at 10 µM has been recorded for COc1ccc(C2=NN(C(=O)c3cc(OC)c(OC)c(OC)c3)C(c3ccccc3F)C2)cc1OC (stereo not drawn) ?
# output ≥ 50%

# input May I ask what inhibition at 10 µM has been recorded for COc1ccc(C2=NN(C(=O)c3ccccc3Cl)C(c3ccc(F)cc3)C2)cc1OC (stereo not drawn) ?
# output ≥ 50%

# input May I ask what inhibition at 10 µM has been recorded for COc1ccc(C2=NN(C(=O)c3cccs3)C(c3ccccc3F)C2)cc1OC (stereo not drawn) ?
# output ≥ 50%
